measured-target: B-Raf (V600E) (Homo sapiens (Human), UniProt P15056, V600E)
Sequence (P15056 whole entry V600E): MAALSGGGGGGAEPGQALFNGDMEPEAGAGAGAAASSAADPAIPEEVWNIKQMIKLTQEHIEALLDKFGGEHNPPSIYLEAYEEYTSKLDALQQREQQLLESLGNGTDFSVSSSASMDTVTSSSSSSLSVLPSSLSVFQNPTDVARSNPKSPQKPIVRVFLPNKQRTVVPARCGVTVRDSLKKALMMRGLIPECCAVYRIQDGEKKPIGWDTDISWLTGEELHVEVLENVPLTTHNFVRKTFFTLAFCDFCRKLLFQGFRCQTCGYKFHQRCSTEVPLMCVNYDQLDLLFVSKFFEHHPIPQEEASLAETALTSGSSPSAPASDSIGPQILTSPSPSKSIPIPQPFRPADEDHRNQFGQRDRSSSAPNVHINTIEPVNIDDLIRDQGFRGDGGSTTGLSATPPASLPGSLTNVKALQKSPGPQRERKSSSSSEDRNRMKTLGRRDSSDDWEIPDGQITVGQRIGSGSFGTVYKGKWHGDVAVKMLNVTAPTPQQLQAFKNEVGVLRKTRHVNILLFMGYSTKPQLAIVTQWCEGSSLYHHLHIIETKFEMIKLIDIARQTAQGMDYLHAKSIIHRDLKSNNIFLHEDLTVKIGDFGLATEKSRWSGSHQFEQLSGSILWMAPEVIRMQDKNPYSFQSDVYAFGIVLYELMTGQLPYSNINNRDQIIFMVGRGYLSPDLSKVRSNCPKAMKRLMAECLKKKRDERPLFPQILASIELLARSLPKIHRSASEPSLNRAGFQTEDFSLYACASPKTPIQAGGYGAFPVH
experiment-description: Raf kinase assay (B-Raf (V600E)), [33P] incorporation into MEK1(K97R)
Format: biochemical
Overview of reported IC50 across a group of compounds:
Numbers only; they are read as nM.

Consider the following illustrative entries.
| chem-smiles | IC50 (nM) |
| --- | --- |
| COc1cc(-c2ccc3ncnc(Nc4ccccc4C(N)=O)c3c2)ccc1O | 2340 |
| CC(=O)Nc1ccc(-c2ccc3ncnc(Nc4cccc5[nH]ncc45)c3c2)cc1 | 393 |

## Input State its IC50: COc1cc(-c2ccc3ncnc(Nc4cccc(OC(F)F)c4)c3c2)ccc1O
## Output 525

## Input Supply measured IC50 of c1ccc(-c2ccc3ncnc(Nc4cccc5[nH]ncc45)c3c2)cc1 in your reply.
## Output 287

## Input Supply reported IC50 belonging to this compound: COc1cccc(Nc2ncnc3ccc(-c4ccc(O)c(OC)c4)cc23)c1
## Output 411
